- ASSAY TARGET: Oxysterols receptor LXR-alpha (Homo sapiens)
- TEST SUMMARY: Agonist activity at full length human LXRalpha expressed in HEK293 cells harboring LXRE-Luc promoter at 10 uM by luciferase reporter gene assay relative to T0901317
- Assay type: cell-based
MEASURE: Emax (%)

line_notation=COc1cccc(-c2nc(-c3ccccc3)n(C(C)=O)n2)c1 measure=Emax recorded_measurement=62
line_notation=CC(=O)n1nc(-c2ccc(C)cc2)nc1-c1ccccc1 measure=Emax recorded_measurement=53
line_notation=Cn1nc(-c2ccccc2)nc1-c1ccccc1 measure=Emax recorded_measurement=64
line_notation=CCn1nc(-c2ccc(Cl)cc2)nc1-c1ccccc1 measure=Emax recorded_measurement=60
line_notation=c1ccc(Cn2nc(-c3ccccc3)nc2-c2ccccc2)cc1 measure=Emax recorded_measurement=58
line_notation=Clc1ccc(-c2nc(-c3ccccc3)n(Cc3ccccc3)n2)cc1 measure=Emax recorded_measurement=53

* * *

- ASSAY TARGET: Oxysterols receptor LXR-alpha (Homo sapiens) (UniProt Q13133)
- Sequence (Q13133 whole entry): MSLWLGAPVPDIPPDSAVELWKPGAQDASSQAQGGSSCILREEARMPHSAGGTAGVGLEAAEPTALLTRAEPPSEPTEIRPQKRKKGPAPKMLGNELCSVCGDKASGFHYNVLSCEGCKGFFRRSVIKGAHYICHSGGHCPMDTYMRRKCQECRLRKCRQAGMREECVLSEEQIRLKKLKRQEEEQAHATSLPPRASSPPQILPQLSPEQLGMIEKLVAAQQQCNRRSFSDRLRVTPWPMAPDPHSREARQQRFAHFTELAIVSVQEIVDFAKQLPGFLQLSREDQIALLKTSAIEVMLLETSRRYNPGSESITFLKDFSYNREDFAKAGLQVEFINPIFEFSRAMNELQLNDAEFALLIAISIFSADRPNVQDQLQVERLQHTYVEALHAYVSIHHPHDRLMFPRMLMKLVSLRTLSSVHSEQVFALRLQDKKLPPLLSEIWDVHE
- TEST SUMMARY: Agonist activity at full length human LXRalpha expressed in HEK293 cells harboring LXRE-Luc promoter at 10 uM by luciferase reporter gene assay relative to T0901317
- Type: cell-based
Active and inactive are the calls of the source. The calls are words filed in the database; no cut-off is given here.
MEASURE: Emax

line_notation=COc1cccc(-c2n[nH]c(-c3ccccc3)n2)c1 assay_target="Oxysterols receptor LXR-alpha (Homo sapiens) (UniProt Q13133)" measure=Emax recorded_measurement=60%
line_notation=Clc1ccc(-c2n[nH]c(Cc3ccccc3)n2)cc1 assay_target="Oxysterols receptor LXR-alpha (Homo sapiens) (UniProt Q13133)" measure=Emax recorded_measurement=inactive
line_notation=CCCCn1nc(-c2ccccc2)nc1-c1ccccc1 assay_target="Oxysterols receptor LXR-alpha (Homo sapiens) (UniProt Q13133)" measure=Emax recorded_measurement=65%
line_notation=Cc1ccc(S(=O)(=O)n2nc(-c3ccccc3)nc2-c2ccccc2)cc1 assay_target="Oxysterols receptor LXR-alpha (Homo sapiens) (UniProt Q13133)" measure=Emax recorded_measurement=75%
line_notation=CCn1nc(-c2ccc(Br)cc2)nc1-c1ccccc1 assay_target="Oxysterols receptor LXR-alpha (Homo sapiens) (UniProt Q13133)" measure=Emax recorded_measurement=45%
line_notation=Clc1ccc(-c2n[nH]c(-c3ccccc3)n2)cc1 assay_target="Oxysterols receptor LXR-alpha (Homo sapiens) (UniProt Q13133)" measure=Emax recorded_measurement=51%
line_notation=Brc1ccc(-c2n[nH]c(-c3ccccc3)n2)cc1 assay_target="Oxysterols receptor LXR-alpha (Homo sapiens) (UniProt Q13133)" measure=Emax recorded_measurement=55%
line_notation=Brc1ccc(-c2nc(-c3ccccc3)n(Cc3ccccc3)n2)cc1 assay_target="Oxysterols receptor LXR-alpha (Homo sapiens) (UniProt Q13133)" measure=Emax recorded_measurement=78%
line_notation=Cc1ccc(-c2n[nH]c(-c3ccccc3)n2)cc1 assay_target="Oxysterols receptor LXR-alpha (Homo sapiens) (UniProt Q13133)" measure=Emax recorded_measurement=62%
line_notation=c1ccc(-c2nc(-c3ccccc3)n(C3CC3)n2)cc1 assay_target="Oxysterols receptor LXR-alpha (Homo sapiens) (UniProt Q13133)" measure=Emax recorded_measurement=inactive
line_notation=Clc1ccccc1-c1n[nH]c(Cc2ccccc2)n1 assay_target="Oxysterols receptor LXR-alpha (Homo sapiens) (UniProt Q13133)" measure=Emax recorded_measurement=46%
line_notation=Cn1nc(-c2ccc(Cl)cc2)nc1-c1ccccc1 assay_target="Oxysterols receptor LXR-alpha (Homo sapiens) (UniProt Q13133)" measure=Emax recorded_measurement=77%
